# Measured On: K55E
# Protocol Summary: SPR; 37 C
Below, each entry is listed with its recorded Kd.
Reply with just the number (in nM).

// worked examples, Kd included
I am curious: what Kd value has been reported for GDF11 (ligand) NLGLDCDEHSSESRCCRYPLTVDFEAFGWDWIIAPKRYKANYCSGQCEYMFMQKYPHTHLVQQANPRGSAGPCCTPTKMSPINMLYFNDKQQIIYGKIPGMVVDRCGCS ?
0.052

Need Kd of BMP10 (ligand) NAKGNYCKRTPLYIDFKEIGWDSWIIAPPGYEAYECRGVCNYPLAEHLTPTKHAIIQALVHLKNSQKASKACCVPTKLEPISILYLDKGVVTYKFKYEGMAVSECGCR , thanks.
0.014

Which value of Kd has been reported for Activin A (ligand) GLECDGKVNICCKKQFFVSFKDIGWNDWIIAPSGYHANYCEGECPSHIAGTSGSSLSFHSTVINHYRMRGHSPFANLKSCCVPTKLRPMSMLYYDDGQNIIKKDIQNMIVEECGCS in the records?
0.064

Turning now to a further binder:
Look up Kd: BMP9 (ligand) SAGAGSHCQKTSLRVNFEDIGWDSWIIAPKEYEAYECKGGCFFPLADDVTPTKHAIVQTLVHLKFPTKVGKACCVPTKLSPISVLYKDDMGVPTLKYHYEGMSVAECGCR
0.27
